Data credit: patent US12435108B2

System: VRE (ATCC700221)
particulars: ATCC700221
metric: In vitro antibacterial activity MIC, VRE(ATCC700221) (µg/mL)
Your answer should be a plain number; it is taken to be in µg/mL.

chem smiles: CC[C@H](C)[C@H](NC(=O)[C@@H](Cc1ccc(-c2ccc(Oc3ccccc3)cc2)cc1)NC)C(=O)N[C@@H](CO)C(=O)N[C@H](CCC(N)=O)C(=O)N[C@@H](C(=O)N[C@H](C(=O)N[C@@H](CO)C(=O)N[C@H]1C(=O)N[C@@H](C)C(=O)NC2(CC2)C(=O)N[C@@H]([C@@H](C)CC)C(=O)O[C@H]1C)[C@@H](C)CC)[C@@H](C)CC.O=C(O)C(F)(F)F
measurement units: µg/mL
meas value: 4
--
chem smiles: C=C[C@H]1C[C@]12NC(=O)[C@H](C)NC(=O)[C@H](NC(=O)[C@H](CO)NC(=O)[C@@H](NC(=O)[C@H](NC(=O)[C@@H](CCC(N)=O)NC(=O)[C@H](CO)NC(=O)[C@@H](NC(=O)[C@@H](Cc1ccc(-c3ccccc3)cc1)NC)[C@@H](C)CC)[C@@H](C)CC)[C@@H](C)CC)[C@H](C)OC(=O)[C@H]([C@@H](C)CC)NC2=O.O=C(O)C(F)(F)F
measurement units: µg/mL
meas value: 4
--
chem smiles: CC[C@H](C)[C@H](NC(=O)[C@@H](Cc1csc2ccccc12)NC)C(=O)N[C@@H](CO)C(=O)N[C@H](CCC(N)=O)C(=O)N[C@@H](C(=O)N[C@H](C(=O)N[C@@H](CO)C(=O)N[C@H]1C(=O)N[C@@H](C)C(=O)N[C@@]2(C[C@H]2CC(F)F)C(=O)N[C@@H]([C@@H](C)CC)C(=O)O[C@H]1C)[C@@H](C)CC)[C@@H](C)CC.O=C(O)C(F)(F)F
measurement units: µg/mL
meas value: 8
--
chem smiles: CC[C@H](C)[C@H](NC(=O)[C@@H](Cc1csc2ccccc12)NC)C(=O)N[C@@H](CO)C(=O)N[C@H](CCC(N)=O)C(=O)N[C@@H](C(=O)N[C@H](C(=O)N[C@@H](CO)C(=O)N[C@H]1C(=O)N[C@@H](C)C(=O)NC2(CCCCCC2)C(=O)N[C@@H]([C@@H](C)CC)C(=O)O[C@H]1C)[C@@H](C)CC)[C@@H](C)CC.O=C(O)C(F)(F)F
measurement units: µg/mL
meas value: 8
--
chem smiles: CC[C@H](C)[C@H](NC(=O)[C@@H](Cc1ccc(-c2ccccc2)cc1)NC)C(=O)N[C@@H](CO)C(=O)N[C@H](CCC(N)=O)C(=O)N[C@@H](C(=O)N[C@H](C(=O)N[C@@H](CO)C(=O)N[C@H]1C(=O)N[C@@H](C)C(=O)NC2(CCCCCC2)C(=O)N[C@@H]([C@@H](C)CC)C(=O)O[C@H]1C)[C@@H](C)CC)[C@@H](C)CC.O=C(O)C(F)(F)F
measurement units: µg/mL
meas value: 4

Could you now look at the following compound, please?
Quickly give me recorded In vitro antibacterial activity MIC, VRE(ATCC700221) for `C=C[C@H]1C[C@]12NC(=O)[C@H](C)NC(=O)[C@H](NC(=O)[C@H](CO)NC(=O)[C@@H](NC(=O)[C@H](NC(=O)[C@@H](CCC(N)=O)NC(=O)[C@H](CO)NC(=O)[C@@H](NC(=O)[C@@H](Cc1ccc3ccccc3c1)NC)[C@@H](C)CC)[C@@H](C)CC)[C@@H](C)CC)[C@H](C)OC(=O)[C@H]([C@@H](C)CC)NC2=O.O=C(O)C(F)(F)F` 4
